assayNotes: Oral bioavailability in fasted dog at 1 mg/kg
Format: ADME, organism-based, Canis lupus familiaris
conditionSummary: in vivo
endpoint: bioavailability (%)
Only the number, expressed in %, is required.

State, in one line, measured bioavailability of `Cc1cc(OCCCS(C)(=O)=O)cc(C)c1-c1cccc(COc2ccc3c(c2)OC[C@H]3CC(=O)O)c1.O`
92.4

----------
assayNotes: Oral bioavailability in fasted Crl:CD(SD) rat at 3 mg/kg
Assay type: ADME, organism-based
conditionSummary: in vivo
endpoint: bioavailability
Enter the number, and then the unit.

State, in one line, measured bioavailability of `Cc1cc(OCCCS(C)(=O)=O)cc(C)c1-c1cccc(COc2ccc3c(c2)OC[C@H]3CC(=O)O)c1.O`
76%

----------
assayNotes: Volume of distribution at steady state in fasted Crl:CD(SD) rat at 1 mg/kg, iv
Type: ADME, organism-based
Parameters: dose 1 mg/kg, route intravenous
conditionSummary: in vivo, read-out: Vdss
endpoint: Vd (L/kg)
Only the number, expressed in L/kg, is required.

State, in one line, measured Vd of `Cc1cc(OCCCS(C)(=O)=O)cc(C)c1-c1cccc(COc2ccc3c(c2)OC[C@H]3CC(=O)O)c1.O`
0.208

----------
assayNotes: Clearance in fasted Crl:CD(SD) rat at 1 mg/kg, iv
Assay type: ADME, organism-based
Design: dose 1 mg/kg, route intravenous
conditionSummary: in vivo
endpoint: clearance (mL/min/kg)
Only the number, expressed in mL/min/kg, is required.

State, in one line, measured clearance of `Cc1cc(OCCCS(C)(=O)=O)cc(C)c1-c1cccc(COc2ccc3c(c2)OC[C@H]3CC(=O)O)c1.O`
0.569

----------
targetOfAssay: UniProtKB O14842
assayNotes: Displacement of 3-[4-({2',6'-dimethyl-6-[(4-[3H])phenylmethoxy]biphenyl-3-yl}methoxy)phenyl]propanoic acid from human GPR40 expressed in CHO membranes after 90 mins by liquid scintillation counting in presence of 0.2 % BSA
pKi: −log10 of the molar value.
Outcome: y for pKi of at least 7; n for anything lower.

Here's what some known entries look like.
{"compound": "Cc1cccc(C)c1-c1cccc(COc2ccc3c(c2)OCCC(C(=O)O)C3)c1 (stereo unspecified)", "classLabel": "n"}
{"compound": "Cc1cccc(C)c1-c1cccc(COc2ccc3c(CC(=O)O)coc3c2)c1", "classLabel": "n"}
{"compound": "Cc1cccc(C)c1-c1cccc(COc2ccc3c(c2)CCC3CC(=O)O)c1 (stereo unspecified)", "classLabel": "n"}
{"compound": "Cc1cccc(C)c1-c1cccc(COc2ccc3c(c2)CCCC3CC(=O)O)c1 (stereo unspecified)", "classLabel": "y"}
{"compound": "Cc1cccc(C)c1-c1cccc(COc2ccc3c(c2)CCCCC3CC(=O)O)c1 (stereo unspecified)", "classLabel": "n"}

Please examine the following record next.
Reported pKi reaches at least 7 for Cc1cccc(C)c1-c1cccc(COc2ccc3c(c2)OCC3CC(=O)O)c1 (stereo unspecified) ?
n

----------
assayNotes: Tmax in fasted Crl:CD(SD) rat at 3 mg/kg, po
Assay type: ADME, organism-based
Design: dose 3 mg/kg, route oral
conditionSummary: in vivo
endpoint: Tmax
Enter the number, and then the unit.

State, in one line, measured Tmax of `Cc1cc(OCCCS(C)(=O)=O)cc(C)c1-c1cccc(COc2ccc3c(c2)OC[C@H]3CC(=O)O)c1.O`
1 h

----------
assayNotes: Terminal half life in fasted Crl:CD(SD) rat at 3 mg/kg, po
Type: ADME, organism-based
Design: dose 3 mg/kg, route oral
conditionSummary: in vivo, read-out: t1/2lambda (converted)
endpoint: half-life
Enter the number, and then the unit.

State, in one line, measured half-life of `Cc1cc(OCCCS(C)(=O)=O)cc(C)c1-c1cccc(COc2ccc3c(c2)OC[C@H]3CC(=O)O)c1.O`
4.1 h

----------
targetOfAssay: UniProt Q5NUL3
Sequence (Q5NUL3 whole entry): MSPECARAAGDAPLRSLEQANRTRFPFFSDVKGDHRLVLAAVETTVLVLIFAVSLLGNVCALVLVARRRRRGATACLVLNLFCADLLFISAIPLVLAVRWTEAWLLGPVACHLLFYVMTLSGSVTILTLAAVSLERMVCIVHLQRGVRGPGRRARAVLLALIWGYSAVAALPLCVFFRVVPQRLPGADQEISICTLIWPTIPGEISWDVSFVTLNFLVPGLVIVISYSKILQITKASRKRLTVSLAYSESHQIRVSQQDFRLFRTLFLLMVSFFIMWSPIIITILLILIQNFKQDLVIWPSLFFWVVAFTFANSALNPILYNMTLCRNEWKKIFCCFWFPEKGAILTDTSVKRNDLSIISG
assayNotes: Agonist activity at human GPR120 expressed in CHO cells assessed as calcium influx after 30 mins by FLIPR assay
endpoint: EC50

State, in one line, measured EC50 of `Cc1cc(OCCCS(C)(=O)=O)cc(C)c1-c1cccc(COc2ccc3c(c2)OC[C@H]3CC(=O)O)c1.O`
> 10 µM

----------
targetOfAssay: Free fatty acid receptor 1 (Rattus norvegicus, UniProt Q8K3T4)
Sequence (Q8K3T4 whole entry): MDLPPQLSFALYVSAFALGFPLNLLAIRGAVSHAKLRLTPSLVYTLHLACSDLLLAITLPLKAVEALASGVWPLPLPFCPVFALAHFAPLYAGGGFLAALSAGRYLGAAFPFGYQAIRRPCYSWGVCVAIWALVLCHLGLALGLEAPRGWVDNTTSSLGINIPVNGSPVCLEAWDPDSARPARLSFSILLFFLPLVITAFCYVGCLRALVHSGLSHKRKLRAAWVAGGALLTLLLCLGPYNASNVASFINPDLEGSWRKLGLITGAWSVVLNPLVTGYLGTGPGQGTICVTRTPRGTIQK
assayNotes: Displacement of 3-[4-({2',6'-dimethyl-6-[(4-[3H])phenylmethoxy]biphenyl-3-yl}methoxy)phenyl]propanoic acid from rat GPR40 expressed in CHO membranes after 90 mins by liquid scintillation counting in presence of 0.2 % BSA
Assay type: cell membranes, Membrane
The following molecules are shown together with reported log10 of Ki values.
Reminder: these figures are log10 of reported Ki, in µM before transformation.

{"molecule": "Cc1cc(OCCCS(C)(=O)=O)cc(C)c1-c1cccc(COc2ccc3c(c2)OC[C@H]3CC(=O)O)c1.O", "targetOfAssay": "Free fatty acid receptor 1 (Rattus norvegicus, UniProt Q8K3T4)", "endpoint": "log10 of Ki", "quantitativeReadout": -0.85}
{"molecule": "Cc1cccc(C)c1-c1cccc(COc2ccc(CCC(=O)O)c(F)c2)c1", "targetOfAssay": "Free fatty acid receptor 1 (Rattus norvegicus, UniProt Q8K3T4)", "endpoint": "log10 of Ki", "quantitativeReadout": -1.27}
{"molecule": "Cc1cc(OCCCS(C)(=O)=O)cc(C)c1-c1cccc(COc2ccc3c(c2)OC[C@@H]3CC(=O)O)c1", "targetOfAssay": "Free fatty acid receptor 1 (Rattus norvegicus, UniProt Q8K3T4)", "endpoint": "log10 of Ki", "quantitativeReadout": 0.20}
{"molecule": "Cc1cccc(C)c1-c1cccc(COc2ccc3c(c2)CCCC3CC(=O)O)c1 (centres undefined)", "targetOfAssay": "Free fatty acid receptor 1 (Rattus norvegicus, UniProt Q8K3T4)", "endpoint": "log10 of Ki", "quantitativeReadout": 0.57}

State, in one line, measured log10 of Ki of Cc1cccc(C)c1-c1cccc(COc2ccc3c(c2)CCC3CC(=O)O)c1 (centres undefined)
-0.28

State, in one line, measured log10 of Ki of Cc1cccc(C)c1-c1cccc(COc2ccc3c(c2)OCC3CC(=O)O)c1 (centres undefined)
0.04

----------
assayNotes: Volume of distribution at steady state in fasted dog at 0.5 mg/kg, iv
Type: ADME, organism-based, Canis lupus familiaris
Parameters: dose 0.5 mg/kg, route intravenous
conditionSummary: in vivo, read-out: Vdss
endpoint: Vd (L/kg)
Only the number, expressed in L/kg, is required.

State, in one line, measured Vd of `Cc1cc(OCCCS(C)(=O)=O)cc(C)c1-c1cccc(COc2ccc3c(c2)OC[C@H]3CC(=O)O)c1.O`
0.225

----------
assayNotes: Clearance in fasted dog at 0.5 mg/kg, iv
Assay type: ADME, organism-based, Canis lupus familiaris
Parameters: dose 0.5 mg/kg, route intravenous
conditionSummary: in vivo
endpoint: clearance

State, in one line, measured clearance of `Cc1cc(OCCCS(C)(=O)=O)cc(C)c1-c1cccc(COc2ccc3c(c2)OC[C@H]3CC(=O)O)c1.O`
0.496 mL/min/kg

----------
assayNotes: Tmax in fasted dog at 1 mg/kg, po
Type: ADME, organism-based, Canis lupus familiaris
Set-up: dose 1 mg/kg, route oral
conditionSummary: in vivo
endpoint: Tmax (h)
Only the number, expressed in h, is required.

State, in one line, measured Tmax of `Cc1cc(OCCCS(C)(=O)=O)cc(C)c1-c1cccc(COc2ccc3c(c2)OC[C@H]3CC(=O)O)c1.O`
2

----------
targetOfAssay: Free fatty acid receptor 3 (Homo sapiens)
Sequence (O14843 whole entry): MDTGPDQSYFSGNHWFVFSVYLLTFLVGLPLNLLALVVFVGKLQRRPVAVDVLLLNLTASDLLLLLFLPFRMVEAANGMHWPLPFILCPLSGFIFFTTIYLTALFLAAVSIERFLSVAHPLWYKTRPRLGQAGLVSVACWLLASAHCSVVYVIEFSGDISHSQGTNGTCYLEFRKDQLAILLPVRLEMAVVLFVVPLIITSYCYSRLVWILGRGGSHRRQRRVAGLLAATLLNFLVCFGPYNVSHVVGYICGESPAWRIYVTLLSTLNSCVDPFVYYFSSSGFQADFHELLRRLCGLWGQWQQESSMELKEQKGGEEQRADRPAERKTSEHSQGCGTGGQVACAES
assayNotes: Agonist activity at human GPR41 expressed in 293 cells assessed as cAMP accumulation after 30 mins by Alphascreen method
endpoint: EC50

State, in one line, measured EC50 of `Cc1cc(OCCCS(C)(=O)=O)cc(C)c1-c1cccc(COc2ccc3c(c2)OC[C@H]3CC(=O)O)c1.O`
> 10 µM

----------
targetOfAssay: Free fatty acid receptor 1 (Homo sapiens, UniProt O14842)
Sequence (O14842 whole entry): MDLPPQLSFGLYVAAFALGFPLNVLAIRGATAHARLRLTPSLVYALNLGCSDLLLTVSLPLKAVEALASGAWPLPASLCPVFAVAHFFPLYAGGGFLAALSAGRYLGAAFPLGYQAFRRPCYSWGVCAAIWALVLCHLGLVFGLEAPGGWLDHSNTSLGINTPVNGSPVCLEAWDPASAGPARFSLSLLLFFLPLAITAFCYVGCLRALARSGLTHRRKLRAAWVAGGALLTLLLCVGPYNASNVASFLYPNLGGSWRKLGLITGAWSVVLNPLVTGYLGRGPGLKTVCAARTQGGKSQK
assayNotes: Agonist activity at human GPR40 expressed in CHO cells assessed as calcium influx by FLIPR assay in presence of 0.1 % BSA
The following molecules are shown together with reported EC50 values.
Only the number, expressed in nM, is required.

Examples with their reported EC50 follow.
{"molecule": "Cc1cccc(C)c1-c1cccc(COc2ccc3c(c2)CCCCC3CC(=O)O)c1 (stereo unspecified)", "targetOfAssay": "Free fatty acid receptor 1 (Homo sapiens, UniProt O14842)", "unitsSymbol": "nM", "EC50": 540}
{"molecule": "Cc1cccc(C)c1-c1cccc(COc2ccc3c(c2)OCC3CC(=O)O)c1 (stereo unspecified)", "targetOfAssay": "Free fatty acid receptor 1 (Homo sapiens, UniProt O14842)", "unitsSymbol": "nM", "EC50": 22}
{"molecule": "Cc1cccc(C)c1-c1cccc(COc2ccc3c(CC(=O)O)coc3c2)c1", "targetOfAssay": "Free fatty acid receptor 1 (Homo sapiens, UniProt O14842)", "unitsSymbol": "nM", "EC50": 1700}
{"molecule": "Cc1cccc(C)c1-c1cccc(COc2ccc3c(c2)OCCC(C(=O)O)C3)c1 (stereo unspecified)", "targetOfAssay": "Free fatty acid receptor 1 (Homo sapiens, UniProt O14842)", "unitsSymbol": "nM", "EC50": 49}
{"molecule": "Cc1cccc(C)c1-c1cccc(COc2ccc3c(c2)CCC3CC(=O)O)c1 (stereo unspecified)", "targetOfAssay": "Free fatty acid receptor 1 (Homo sapiens, UniProt O14842)", "unitsSymbol": "nM", "EC50": 28}

Proceed to the following item.
State, in one line, measured EC50 of Cc1cccc(C)c1-c1cccc(COc2ccc3c(c2)CCCC3CC(=O)O)c1 (stereo unspecified)
23
